# MEASURED_TARGET: human thrombin (Homo sapiens, UniProt P00734)
# Construct: human thrombin; purchased Sigma Chemical Co., St. Louis, U.S.A
# ASSAY_NAME: Determination of Ki, inhibition of reaction of thrombin with substrate S-2238
# Format: biochemical
# CONDITION: Table 3
Counter-ions that a name gives are not always drawn.
Ki strictly less than 200 nM = label 1. Otherwise label 0.

[[record]]
molecule = "CN(C)c1cccc2c(S(=O)(=O)N[C@@H](Cc3ccc(NC(=N)N)cc3)C(=O)N3CCCCCC3)cccc12"
assigned_category = "label 1"

[[record]]
molecule = "CN(C)c1cccc2c(S(=O)(=O)N[C@@H](Cc3ccc(NC(=N)N)cc3)C(=O)N3CCCCC3)cccc12 [i, hydrochloride]"
assigned_category = "label 1"

[[record]]
molecule = "CCCC1CCN(C(=O)[C@H](Cc2ccc(NC(=N)N)cc2)NS(=O)(=O)c2cccc3c(N(C)C)cccc23)CC1"
assigned_category = "label 0"

[[record]]
molecule = "CN1CCN(C(=O)[C@H](Cc2ccc(NC(=N)N)cc2)NS(=O)(=O)c2cccc3c(N(C)C)cccc23)CC1"
assigned_category = "label 0"

[[record]]
molecule = "CCCCN(C)C(=O)[C@H](Cc1ccc(NC(=N)N)cc1)NS(=O)(=O)c1cccc2c(N(C)C)cccc12"
assigned_category = "label 0"


====

# reported pKi; entries follow
# MEASURED_TARGET: human thrombin (Homo sapiens)
# Construct: human thrombin; purchased Sigma Chemical Co., St. Louis, U.S.A
# ASSAY_NAME: Determination of Ki, inhibition of reaction of thrombin with substrate S-2238
# Type: biochemical
# CONDITION: Table 1
pKi: −log10 of the molar value.
OBSERVED_PROPERTY: pKi

[[record]]
compound = "COC(=O)[C@H](Cc1ccc(NC(=N)N)cc1)NS(=O)(=O)c1ccc(C)cc1"
observed_property = "pKi"
experimental_result = 5.12

[[record]]
compound = "CN(C)c1cccc2c(S(=O)(=O)N[C@@H](CCCNC(=N)N)C(=O)N3CCCCC3)cccc12 [Dansyl--Arg--piperidide, reference compound]"
observed_property = "pKi"
experimental_result = 7.05

[[record]]
compound = "Cc1ccc(S(=O)(=O)N[C@@H](CCCNC(=N)N)C(=O)N2CCCCC2)cc1 [Tos--Arg--piperidide, reference compound]"
observed_property = "pKi"
experimental_result = 5.30


====

# MEASURED_TARGET: human factor Xa (Homo sapiens)
# Construct: human factor Xa; purchased KabiVitrum AB, Stockholm
# Sequence (P00742 235-488 limits assumed): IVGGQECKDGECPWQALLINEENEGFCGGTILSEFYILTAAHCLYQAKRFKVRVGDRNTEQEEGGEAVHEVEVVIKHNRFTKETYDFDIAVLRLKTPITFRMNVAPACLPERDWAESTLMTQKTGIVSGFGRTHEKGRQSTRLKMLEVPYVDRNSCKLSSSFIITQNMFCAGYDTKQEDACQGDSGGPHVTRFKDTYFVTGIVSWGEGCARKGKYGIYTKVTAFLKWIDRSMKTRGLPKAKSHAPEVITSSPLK
# Sequence (P00742 41-179 partner limits assumed): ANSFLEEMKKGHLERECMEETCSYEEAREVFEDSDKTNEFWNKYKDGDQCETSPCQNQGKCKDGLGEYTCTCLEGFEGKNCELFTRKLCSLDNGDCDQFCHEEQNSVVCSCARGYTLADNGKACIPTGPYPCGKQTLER
# ASSAY_NAME: Determination of Ki, inhibition of reaction of factor Xa with substrate S-2222
# Format: biochemical
# CONDITION: Table 3; read-out: Ki FXa (converted)
Counter-ions that a name gives are not always drawn.
Ki strictly less than 100 µM = Fulfilled. Otherwise Not fulfilled.

[[record]]
compound = "CN1CCN(C(=O)[C@H](Cc2ccc(NC(=N)N)cc2)NS(=O)(=O)c2cccc3c(N(C)C)cccc23)CC1 [viii]"
assigned_category = "Not fulfilled"

[[record]]
compound = "N=C(N)Nc1ccc(C[C@H](NS(=O)(=O)c2ccc3ccccc3c2)C(=O)N2CCOCC2)cc1 [iv, β-Naphthalenesulfonyl--Gph--morpholide]"
assigned_category = "Fulfilled"

[[record]]
compound = "CN(C)c1cccc2c(S(=O)(=O)N[C@@H](Cc3ccc(NC(=N)N)cc3)C(=O)N3CCCCCC3)cccc12 [vi]"
assigned_category = "Not fulfilled"

[[record]]
compound = "CCCCN(C)C(=O)[C@H](Cc1ccc(NC(=N)N)cc1)NS(=O)(=O)c1cccc2c(N(C)C)cccc12 [ix]"
assigned_category = "Not fulfilled"

[[record]]
compound = "CC1CCN(C(=O)[C@H](Cc2ccc(NC(=N)N)cc2)NS(=O)(=O)c2ccc3ccccc3c2)CC1 [ii, hydrochloride]"
assigned_category = "Fulfilled"

[[record]]
compound = "CC1CCN(C(=O)[C@H](Cc2ccc(NC(=N)N)cc2)NS(=O)(=O)c2cccc3ccccc23)CC1 [iii]"
assigned_category = "Not fulfilled"

[[record]]
compound = "CN(C)c1cccc2c(S(=O)(=O)N[C@@H](Cc3ccc(NC(=N)N)cc3)C(=O)N3CCCCC3)cccc12 [i, hydrochloride]"
assigned_category = "Not fulfilled"

[[record]]
compound = "Cc1ccc(S(=O)(=O)N[C@@H](Cc2ccc(NC(=N)N)cc2)C(=O)N2CCCCC2)cc1 [v, Tos--Gph--piperidide]"
assigned_category = "Not fulfilled"

[[record]]
compound = "CCCC1CCN(C(=O)[C@H](Cc2ccc(NC(=N)N)cc2)NS(=O)(=O)c2cccc3c(N(C)C)cccc23)CC1 [vii]"
assigned_category = "Not fulfilled"

